Values compiled from patent US20250243286A1.

Give log10 of IC90, Myostatin SMAD RGA for every item shown.
# tgt: ActRIIA and ActRIIB (on TGFB/SMAD SBE Reporter HEK293 cells) (human)
# Sequence (chain, as listed by the source, chain 1 of 2): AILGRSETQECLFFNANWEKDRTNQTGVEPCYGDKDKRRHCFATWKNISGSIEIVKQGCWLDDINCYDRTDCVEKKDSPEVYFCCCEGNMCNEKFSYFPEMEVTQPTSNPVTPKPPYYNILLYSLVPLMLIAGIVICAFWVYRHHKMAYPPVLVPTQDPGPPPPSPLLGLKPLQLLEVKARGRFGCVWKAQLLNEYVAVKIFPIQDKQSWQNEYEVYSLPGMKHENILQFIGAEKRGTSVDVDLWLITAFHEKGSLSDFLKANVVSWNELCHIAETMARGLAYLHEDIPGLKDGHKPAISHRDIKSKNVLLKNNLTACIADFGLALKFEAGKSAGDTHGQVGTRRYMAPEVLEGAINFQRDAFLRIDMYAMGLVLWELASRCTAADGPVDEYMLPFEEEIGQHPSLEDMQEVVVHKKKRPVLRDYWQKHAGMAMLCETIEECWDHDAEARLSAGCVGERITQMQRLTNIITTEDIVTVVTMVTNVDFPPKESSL
# Sequence (chain, as listed by the source, chain 2 of 2): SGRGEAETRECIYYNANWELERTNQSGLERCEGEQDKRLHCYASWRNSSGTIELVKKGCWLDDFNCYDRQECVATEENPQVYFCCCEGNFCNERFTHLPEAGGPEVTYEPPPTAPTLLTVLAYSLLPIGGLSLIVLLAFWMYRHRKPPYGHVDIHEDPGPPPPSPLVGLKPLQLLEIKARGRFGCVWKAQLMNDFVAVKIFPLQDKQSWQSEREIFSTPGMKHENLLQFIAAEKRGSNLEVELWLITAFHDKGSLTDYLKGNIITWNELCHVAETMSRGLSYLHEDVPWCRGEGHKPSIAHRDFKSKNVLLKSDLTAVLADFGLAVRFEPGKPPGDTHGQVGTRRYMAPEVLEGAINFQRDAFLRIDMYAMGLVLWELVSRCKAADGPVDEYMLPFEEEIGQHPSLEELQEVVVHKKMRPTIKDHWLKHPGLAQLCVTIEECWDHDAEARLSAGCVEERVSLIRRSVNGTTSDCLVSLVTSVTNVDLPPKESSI
# assay explanation: cell-based or functional assay
Hey, these are logged values: log10 of IC90, Myostatin SMAD RGA, nM being the unit before logging.

# log10 of IC90, Myostatin SMAD RGA lookup, item Antibody Backstoikäs (antibody, V domains shown, full-length IgG) VH: QVQLVQSGAEVKKPGASVKVSCKASGYKFTSSYINWVRQAPGQGLEWMGTINPVSGSTSYAQKFQGRVTMTRDTSISTAYMELSRLRSDDTAVYYCARGGWFDYWGQGTLVTVSS VL: QSALTQPASVSGSPGQSITISCTGTSSDVGSYNYVNWYQQHPGKAPKLMIYGVSKRPRGVSNRFSGSKSGNTASLTISGLQAEDEADYYCGTFAGGSYYGVFGGGTKLTVL 0.09

# log10 of IC90, Myostatin SMAD RGA lookup, item Antibody Bebballesgmias (antibody, V domains shown, full-length IgG) VH: QVQLVQSGAEVKKPGSSVKVSCKASGYKFTSSYINWVRQAPGQGLEWMGTINPVSGSTSYAQKFQGRVTITADTSTSTAYMELSSLRSEDTAVYYCARGGWFDYWGQGTLVTVSS VL: QSALTQPRSVSGSPGQSVTISCTGTSSDVGSYNYVNWYQQHPGKAPKLMIYGVSKRPRGVPDRFSGSKSGNTASLTISGLQAEDEADYYCGTFAGGSYYGVFGGGTKLTVL 0.29

# log10 of IC90, Myostatin SMAD RGA lookup, item Antibody Dürrfloischeggla (antibody, V domains shown, full-length IgG) VH: QVQLVQSGAEVKKPGASVKVSCKASGYTFTSSYINWVRQAPGQGLEWMGTINAVSGSTSYAQKFQGRVTMTRDVSISTAYMELSRLRSDDTAVYYCARGGWFDYWGQGTLVTVSS VL: QSALTQPASVSGSPGQSITISCTGTSSDVGSYNVVNWYQQHPGKAPKLMISGVSKRESGVSNRFSGSKSGNTASLTISGLQAEDEADYYCGTFAGGKYYGVFGGGTKLTVL 0.78

# log10 of IC90, Myostatin SMAD RGA lookup, item Bimagrumab (antibody, V domains shown) VH: QVQLVQSGAEVKKPGASVKVSCKASGYTFTSSYINWVRQAPGQGLEWMGTINPVSGSTSYAQKFQGRVTMTRDTSISTAYMELSRLRSDDTAVYYCARGGWFDYWGQGTLVTVSS VL: QSALTQPASVSGSPGQSITISCTGTSSDVGSYNYVNWYQQHPGKAPKLMIYGVSKRPSGVSNRFSGSKSGNTASLTISGLQAEDEADYYCGTFAGGSYYGVFGGGTKLTVL 1.13

# log10 of IC90, Myostatin SMAD RGA lookup, item Antibody Rippla (antibody, V domains shown, full-length IgG; also called Ripp1a) VH: QVQLVQSGAEVRKPGASVKVSCKASGYTFTSSYINWVRQAPGQGLEWMGTINPVSGSTSYAQKFQGRVTMTRDTSISTAYMELSRLRSDDTAVYYCARGGWFDYWGQGTLVTVSS VL: QSALTQPASVSGSPGQSITISCTGTSSDVGSYNRVNWYQQHPGKAPKLMIYGVSKRESGVSNRFSGSKSGNTASLTISGLQAEDEADYYCGTFAGGRYYGVFGGGTKLTVL 0.98
